Listed next: entries and their corresponding GI50.
tested on: RXF 393; test: NCI tumour cell line growth inhibition, 48 h
Activity calls are given as the source filed them. Rule as the data show it: active = GI50 up to about 1.1 µM and inactive = higher.
value-kind: GI50

| molecule | target-desc | value-kind | recorded-result |
| --- | --- | --- | --- |
| NC1OC(COC(=O)c2ccccc2)C(O)C(OC(=O)c2ccccc2)C1OC(=O)c1ccccc1 (stereo not given) | RXF 393 | GI50 | 16.3 µM (inactive) |
| c1ccc(CNCCCCNCCCNCc2ccccc2)cc1 | RXF 393 | GI50 | 16.4 µM (inactive) |
| Cn1sc2ccccc2c1=S | RXF 393 | GI50 | 3.08 µM (inactive) |
| O=C1CSC2(CC(/C=C/c3ccccc3Br)=NN2c2cccc(S(=O)(=O)O)c2)N1c1nc2ccccc2s1 (stereo not given) | RXF 393 | GI50 | > 100 µM (inactive) |
| Cc1ccc(-c2cc(-c3c(C)nn(C)c(=O)c3N)n[nH]2)cc1 | RXF 393 | GI50 | > 100 µM (inactive) |
| Cc1ccc(S(=O)(=O)O)cc1.c1cc2c(c(NC3=NCCN3)c1)CCCC2 | RXF 393 | GI50 | > 100 µM (inactive) |
| CC(=O)Oc1c(C)c(-c2ccccc2)c(C)c(-c2ccccc2)c1C(=S)c1ccccc1 | RXF 393 | GI50 | > 100 µM (inactive) |
| Cc1cccc(/N=C2\NC(=O)C(CC(=O)Nc3ccc(C)cc3C)S2)c1 (stereo not given) | RXF 393 | GI50 | > 100 µM (inactive) |
| C/C=C\C(CC(=O)NCCC1CN(S(=O)(=O)C(F)(F)F)c2ccccc21)CC(=O)OC (stereo not given) | RXF 393 | GI50 | 36.3 µM (inactive) |
| CC1(C)[C@@H]2C[C@H]1C(Cc1cccc(C[C@H]3c4cc(-c5ccccn5)ncc4[C@H]4C[C@@H]3C4(C)C)c1)c1cc(-c3ccccn3)ncc12 (stereo not given in full) | RXF 393 | GI50 | 8.41 µM (inactive) |
| CC(=O)Oc1ccc(C)c2c1[C@H]1CC[C@]3(C)[C@@H](OC(C)=O)CC[C@H]3[C@@H]1CC2 | RXF 393 | GI50 | 19.1 µM (inactive) |
| Oc1ccc(/N=C/c2ccc(/C=N/c3ccc(O)cc3)cc2)cc1 | RXF 393 | GI50 | 17.1 µM (inactive) |
| Cc1n[nH]c(=S)n1/N=C/c1ccc(-c2ccc(Cl)cc2)o1 | RXF 393 | GI50 | 43 µM (inactive) |
| CC1=C(O)C(=O)C2C(=O)C1C1Cc3ccccc3C21 (stereo not given) | RXF 393 | GI50 | > 100 µM (inactive) |
| COc1cc2c(cc1OC)[Se]c1cc(OC)c(OC)cc1[Se]2 | RXF 393 | GI50 | 15.1 µM (inactive) |
| O=C(CSC1=NCCN1)c1ccccc1 | RXF 393 | GI50 | > 100 µM (inactive) |
| O=[N+]([O-])c1cc2c(c([N+](=O)[O-])c1)NCc1ccccc1O2 | RXF 393 | GI50 | 16 µM (inactive) |
| CC(ON(C(c1ccccc1)C(C)C)C(C)(C)C)c1ccccc1 (stereo not given) | RXF 393 | GI50 | 16.3 µM (inactive) |
| Oc1c(Cl)c(Cl)c(O)c2c1CCCC2 | RXF 393 | GI50 | 10.6 µM (inactive) |
| COC1OC(CBr)C(OC(c2ccccc2)(c2ccccc2)c2ccccc2)C(OC(c2ccccc2)(c2ccccc2)c2ccccc2)C1OC(c1ccccc1)(c1ccccc1)c1ccccc1 (stereo not given) | RXF 393 | GI50 | 33.4 µM (inactive) |
